- tgt: mutant G2019S LRRK2 (Homo sapiens (Human), UniProt Q5S007, G2019S)
- Sequence (Q5S007 whole entry G2019S): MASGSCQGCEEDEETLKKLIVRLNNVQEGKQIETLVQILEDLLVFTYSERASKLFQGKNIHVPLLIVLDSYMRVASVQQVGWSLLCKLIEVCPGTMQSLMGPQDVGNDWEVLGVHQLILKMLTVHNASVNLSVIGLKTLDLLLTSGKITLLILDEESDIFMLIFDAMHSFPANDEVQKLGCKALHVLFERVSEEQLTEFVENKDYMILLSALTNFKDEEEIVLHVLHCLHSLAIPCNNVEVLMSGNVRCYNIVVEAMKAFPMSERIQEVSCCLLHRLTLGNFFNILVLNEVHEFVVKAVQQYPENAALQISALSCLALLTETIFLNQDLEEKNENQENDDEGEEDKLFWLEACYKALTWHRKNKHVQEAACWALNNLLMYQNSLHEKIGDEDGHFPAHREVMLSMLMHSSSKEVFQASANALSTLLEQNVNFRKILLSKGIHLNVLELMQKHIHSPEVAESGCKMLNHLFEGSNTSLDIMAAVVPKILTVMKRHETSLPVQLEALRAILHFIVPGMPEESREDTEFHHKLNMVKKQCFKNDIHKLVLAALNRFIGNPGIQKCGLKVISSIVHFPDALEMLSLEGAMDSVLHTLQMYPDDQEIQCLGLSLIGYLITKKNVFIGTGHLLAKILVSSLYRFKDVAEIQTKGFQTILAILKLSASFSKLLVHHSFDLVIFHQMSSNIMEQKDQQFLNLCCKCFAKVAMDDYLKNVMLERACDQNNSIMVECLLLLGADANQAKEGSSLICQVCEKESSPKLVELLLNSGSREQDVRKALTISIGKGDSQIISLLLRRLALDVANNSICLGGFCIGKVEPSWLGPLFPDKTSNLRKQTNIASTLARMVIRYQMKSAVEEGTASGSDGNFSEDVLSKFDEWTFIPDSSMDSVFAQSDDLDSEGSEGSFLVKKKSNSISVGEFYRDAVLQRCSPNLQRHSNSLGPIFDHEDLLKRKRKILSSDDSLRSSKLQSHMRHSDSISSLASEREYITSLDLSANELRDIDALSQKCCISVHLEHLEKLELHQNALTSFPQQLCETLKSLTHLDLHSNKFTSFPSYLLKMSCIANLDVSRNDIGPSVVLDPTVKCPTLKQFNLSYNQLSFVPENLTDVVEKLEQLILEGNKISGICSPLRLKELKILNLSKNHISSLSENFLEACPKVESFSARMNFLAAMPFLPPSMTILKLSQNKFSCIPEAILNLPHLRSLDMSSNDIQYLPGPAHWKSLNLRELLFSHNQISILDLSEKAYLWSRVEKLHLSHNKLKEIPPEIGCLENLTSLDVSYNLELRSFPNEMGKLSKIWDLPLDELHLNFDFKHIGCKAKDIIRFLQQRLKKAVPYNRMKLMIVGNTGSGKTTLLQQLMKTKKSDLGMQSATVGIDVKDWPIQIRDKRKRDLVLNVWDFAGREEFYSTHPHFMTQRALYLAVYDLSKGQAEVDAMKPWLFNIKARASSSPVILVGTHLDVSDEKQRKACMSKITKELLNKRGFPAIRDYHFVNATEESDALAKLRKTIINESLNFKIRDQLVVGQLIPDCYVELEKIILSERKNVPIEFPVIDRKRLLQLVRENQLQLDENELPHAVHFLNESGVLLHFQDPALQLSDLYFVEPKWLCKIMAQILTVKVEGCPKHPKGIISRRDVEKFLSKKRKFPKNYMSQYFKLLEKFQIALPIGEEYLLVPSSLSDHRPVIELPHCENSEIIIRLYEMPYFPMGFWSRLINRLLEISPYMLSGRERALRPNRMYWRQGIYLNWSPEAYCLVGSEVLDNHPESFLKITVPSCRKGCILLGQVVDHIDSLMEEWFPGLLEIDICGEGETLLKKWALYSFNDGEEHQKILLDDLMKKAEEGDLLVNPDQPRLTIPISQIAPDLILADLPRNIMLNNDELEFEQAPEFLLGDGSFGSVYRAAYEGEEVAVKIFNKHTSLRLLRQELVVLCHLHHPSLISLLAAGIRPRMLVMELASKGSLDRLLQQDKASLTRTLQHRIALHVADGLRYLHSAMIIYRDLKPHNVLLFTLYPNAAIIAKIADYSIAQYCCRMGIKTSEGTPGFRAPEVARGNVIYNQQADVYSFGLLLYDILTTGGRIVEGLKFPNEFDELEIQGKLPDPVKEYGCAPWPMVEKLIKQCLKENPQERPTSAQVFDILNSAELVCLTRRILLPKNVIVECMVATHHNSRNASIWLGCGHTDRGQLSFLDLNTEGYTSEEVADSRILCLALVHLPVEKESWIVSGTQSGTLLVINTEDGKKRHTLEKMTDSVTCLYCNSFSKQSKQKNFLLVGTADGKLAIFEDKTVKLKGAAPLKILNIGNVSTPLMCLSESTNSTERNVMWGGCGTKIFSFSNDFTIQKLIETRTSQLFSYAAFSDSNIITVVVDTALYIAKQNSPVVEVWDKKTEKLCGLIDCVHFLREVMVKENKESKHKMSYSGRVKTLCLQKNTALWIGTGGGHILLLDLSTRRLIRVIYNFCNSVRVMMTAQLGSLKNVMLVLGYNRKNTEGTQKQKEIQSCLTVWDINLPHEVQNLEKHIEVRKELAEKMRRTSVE
- method notes: LRRK2 kinase assay (LanthaScreen), G2019S mutant
- Assay type: biochemical
- run parameters: LanthaScreen, LRRKtide substrate, 1 mM ATP; read-out: LRRK2, G2019S mutant IC50

molecule | tgt | IC50 (nM)
Cc1cn(Cc2nc3cnc4ccc(Cl)cc4c3n2C2CCOCC2(F)F)nn1 (stereo not drawn) [enantiomer of Example 46] | mutant G2019S LRRK2 (Homo sapiens (Human), UniProt Q5S007, G2019S) | 16.1

* * *

- method notes: Human liver microsomes enzyme kinetics (metabolite formation)
- Type: in vitro ADME
- run parameters: pH 7.4; formation of metabolite 95 (from 95A) or 96B (from 96), human liver microsomes
- Experimental: Human Liver Microsomes Enzyme Kinetics […] Disappearance of substrates 95A and 96 and formation of metabolites 95 or 96B were determined using an LC-MS/MS system which is comprised of an AB Sciex 6500 triple quadrupole mass spectrometer equipped with an electrospray source (AB Sciex, Framingham, Mass.) and Agilent Technologies Infinity 1290 (Santa Clara, Calif.). […] Analytes were quantified using Analyst software, version 1.6.2 or earlier (AB Sciex, Framingham, Mass.).

molecule | microsomal CLint
Cc1cnc(Cc2nc3cnc4ccc(Cl)cc4c3n2[C@@H]2CCO[C@H](C)C2)cn1 [Example 95A] | 15.1 µL/min/mg

* * *

- tgt: LRRK2, WT (GST-tagged truncated LRRK2) (Homo sapiens, UniProt Q5S007)
- method notes: LRRK2 kinase assay (LanthaScreen), wild type
- Format: biochemical
- run parameters: wild type LRRK2; LanthaScreen, LRRKtide substrate

compound | units label | IC50
Cc1cn(Cc2nc3cnc4ccc(Cl)cc4c3n2[C@@H]2CCN(C)C2)nn1 | nM | 5.78
N#Cc1ccc2ncc3nc(Cc4nc5ccccc5o4)n([C@@H]4CC[C@H](F)C4)c3c2c1 (relative stereo) | nM | 8.56
Cc1cnn(Cc2nc3cnc4ccc(C#N)cc4c3n2C2CN(C)CC2(F)F)n1 (single isomer, unassigned) [Example 4] | nM | 17.6
COCc1cn(Cc2nc3cnc4ccc(Cl)cc4c3n2C2CCOCC2(F)F)nn1 (centres unmarked) | nM | 11.3
Cc1nc(Cc2nc3cnc4ccc(Cl)cc4c3n2C2CN(C)CC2(F)F)no1 (centres unmarked) [Example 45] | nM | 8.13
Cc1cnc(Cc2nc3cnc4ccc(Cl)cc4c3n2[C@@H]2CC[C@H](F)C2)cn1 (relative stereo) | nM | 13
CC(C#N)Cc1nc2cnc3ccc(Cl)cc3c2n1[C@@H]1CCO[C@H](C)C1 (some centres unmarked) | nM | 25.8
CC1(C)CC(n2c(Cn3cncn3)nc3cnc4ccc(Cl)cc4c32)CCO1 (centres unmarked) | nM | 13.7

* * *

- tgt: LRRK2, WT (GST-tagged truncated LRRK2) (Homo sapiens, UniProt Q5S007)
- method notes: LRRK2 kinase assay (LanthaScreen), wild type
- Type: biochemical
- run parameters: wild type LRRK2; LanthaScreen, LRRKtide substrate
- Description: LRRK2 kinase activity was measured using Lantha Screen technology from Invitrogen. GST-tagged truncated LRRK2 from Invitrogen (Cat #PV4874) was incubated with a fluorescein-labeled peptide substrate based upon ezrin/radixin/moesin (ERM), also known as LRRKtide (Invitrogen cat #PR8976A), in the presence of a dose response of compound. Upon completion, the assay was stopped and detected with a terbium labeled anti-phospho-ERM antibody (Invitrogen, cat #PR8975A). […]
pIC50: −log10 of the molar value.
// pIC50 lookup, one value per entry

compound | pIC50
C[C@@H]1C[C@H](n2c(Cc3csnn3)nc3cnc4ccc(C(F)(F)F)cc4c32)CCO1 [Example 63] | 8.16
COc1cnn(Cc2nc3cnc4ccc(C#N)cc4c3n2[C@@H]2CCN(C)C2)c1 [Example 36] | 8.30
Cc1cnc(Cc2nc3cnc4ccc(C#N)cc4c3n2[C@@H]2CCN(C)C2)o1 [Example 38] | 8.13
C[C@@H]1C[C@H](n2c(Cc3nccs3)nc3cnc4ccc(Cl)cc4c32)CCO1 [Example 58] | 8.27
